Data provenance is patent US10787430B2.

- System tested: hemoglobin (20% hct blood) (Homo sapiens, UniProt P68871+P69905)
- Construct: Normal whole blood was collected from adult healthy donors; from tissue; host or cells: normal human whole blood (red blood cells), adult healthy donors
- Sequence (P69905 2-142 limits assumed): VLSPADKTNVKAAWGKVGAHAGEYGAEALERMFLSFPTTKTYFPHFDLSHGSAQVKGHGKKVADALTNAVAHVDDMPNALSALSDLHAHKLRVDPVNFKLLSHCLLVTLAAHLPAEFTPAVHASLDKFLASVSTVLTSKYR
- Sequence (P68871 2-147 limits assumed): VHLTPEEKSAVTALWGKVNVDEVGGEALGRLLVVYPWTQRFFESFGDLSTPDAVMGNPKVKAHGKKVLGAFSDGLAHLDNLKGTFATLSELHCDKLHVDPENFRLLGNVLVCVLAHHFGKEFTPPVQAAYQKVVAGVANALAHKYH
- Test details: Dose-dependent whole blood OEC studies
- Type: cell-based
- Condition notes: 0.2 mM compound, 37° C., 1 hr
The threshold is inclusive: delta p50 0.2 mM of exactly -10% counts as Satisfied; values below receive Not satisfied.

1) [2H]C([2H])(Oc1ccc2ncoc2c1C=O)c1cccnc1-c1ccnn1C(C)C
Not satisfied
2) [2H]C([2H])(Oc1cc(F)cc(O)c1C=O)c1cccnc1-c1ccnn1C(C)C [Example 27b]
Not satisfied
3) [2H]C([2H])(Oc1cc(F)cc(O)c1C=O)c1cccnc1-c1c(F)cnn1C(C)C
Not satisfied
4) [2H]C(C)(C)n1nccc1-c1ncncc1COc1cccc(O)c1C=O
Not satisfied
5) [2H]C([2H])(Oc1cccc(O)c1C=O)c1nccnc1-n1ccnc1C(C)C
Satisfied

As a next step, examine the molecule that follows.
QUERY: Hi, just wondering whether [2H]C(C)(C)n1nccc1-c1nccnc1COc1cccc(O)c1C=O shows delta p50 0.2 mM of -10% or higher.
RESULT: Not satisfied
